Known GI50 of a selection of compounds
Test system: M14 melanoma
Assay method text: NCI tumour cell line growth inhibition, 48 h
Endpoint: GI50

[[record]]
mol_smiles = "COc1cc2c(cc1OC)-c1ncc3cc4c(cc3c1C2)OCO4"
value_observed = "19.6 µM"

[[record]]
mol_smiles = "CCCn1c(N)c(C(=O)CNc2ccc(I)cc2)c(=O)[nH]c1=O"
value_observed = "> 100 µM"

[[record]]
mol_smiles = "C1CC[N-]CC1.CC(=N\\O)/C(C)=N/O.CC(=N\\O)/C(C)=N/O.[CH2-]CCN1CCOCC1.[Co+2]"
value_observed = "> 100 µM"

[[record]]
mol_smiles = "COC(=O)[C@]12CC[C@@H](C)[C@H](C)[C@@H]1C1=CC[C@@H]3[C@@]4(C)CC(=O)[C@H](OC(=O)c5ccco5)[C@@]5(C)COC(=C45)C[C@@]3(C)[C@]1(C)CC2"
value_observed = "0.654 µM"

[[record]]
mol_smiles = "O=C(Nc1cc(-c2cccnc2)nc(NCCCN2CCOCC2)n1)c1cc(Br)cc(C(F)(F)F)c1"
value_observed = "1.67 µM"

